Recorded measurements of IC50, one per entry
test-target: EGFR Del19/T790M/C797S (Homo sapiens, UniProt P00533, C797S/DEL746-750/T790M)
Sequence (P00533 with tags, fused parts or gaps DEL746-750/T790M/C797S): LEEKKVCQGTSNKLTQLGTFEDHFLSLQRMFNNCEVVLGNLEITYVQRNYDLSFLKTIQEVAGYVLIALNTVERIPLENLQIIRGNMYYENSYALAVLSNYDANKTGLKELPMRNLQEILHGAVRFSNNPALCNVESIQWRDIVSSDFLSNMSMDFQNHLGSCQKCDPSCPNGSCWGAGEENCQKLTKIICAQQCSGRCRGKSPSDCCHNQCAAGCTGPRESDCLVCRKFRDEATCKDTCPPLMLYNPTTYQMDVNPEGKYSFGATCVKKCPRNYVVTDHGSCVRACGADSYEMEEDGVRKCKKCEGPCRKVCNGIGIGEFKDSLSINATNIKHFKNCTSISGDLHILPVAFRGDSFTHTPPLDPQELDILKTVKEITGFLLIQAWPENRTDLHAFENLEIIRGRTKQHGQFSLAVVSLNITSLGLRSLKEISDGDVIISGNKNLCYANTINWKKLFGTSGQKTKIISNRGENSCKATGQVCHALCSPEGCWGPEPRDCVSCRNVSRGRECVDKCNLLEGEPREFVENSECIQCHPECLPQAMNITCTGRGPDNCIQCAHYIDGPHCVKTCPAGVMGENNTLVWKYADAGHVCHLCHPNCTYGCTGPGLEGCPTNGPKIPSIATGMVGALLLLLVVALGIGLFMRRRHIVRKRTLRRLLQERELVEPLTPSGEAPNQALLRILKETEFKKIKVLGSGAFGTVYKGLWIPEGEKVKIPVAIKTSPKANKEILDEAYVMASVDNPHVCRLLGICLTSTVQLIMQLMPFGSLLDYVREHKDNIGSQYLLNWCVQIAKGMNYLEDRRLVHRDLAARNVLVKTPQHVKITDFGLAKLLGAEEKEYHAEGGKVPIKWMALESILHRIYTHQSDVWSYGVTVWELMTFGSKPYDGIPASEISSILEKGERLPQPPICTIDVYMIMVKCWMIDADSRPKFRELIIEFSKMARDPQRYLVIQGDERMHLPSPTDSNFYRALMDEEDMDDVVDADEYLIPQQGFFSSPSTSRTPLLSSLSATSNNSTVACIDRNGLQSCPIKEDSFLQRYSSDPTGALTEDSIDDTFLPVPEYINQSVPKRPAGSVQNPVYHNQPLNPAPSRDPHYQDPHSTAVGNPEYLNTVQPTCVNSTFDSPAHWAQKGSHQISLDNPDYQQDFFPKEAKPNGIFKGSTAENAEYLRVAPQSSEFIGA
experimental-details: Biochemical EGFR kinase inhibition assay (Lance Ultra TR-FRET), triple mutant del19/T790M/C797S
particulars: IC50 Del19/T790M/C797S (nM), 100 μM ATP
Kindly answer with a numeric value in nM, unit omitted.

Answered cases to consult:
Cn1cc(C#Cc2cnc(Nc3ccnc(-c4cnn(S(=O)(=O)C5CC5)c4)n3)cc2N2CCC3(CCNC3=O)CC2)cn1 [Example 79] | 0.3
CC1OCCC1C#Cc1cnc(Nc2ccnc(-c3cnn(S(=O)(=O)C4CC4)c3)n2)cc1N1CCC(C)(O)CC1 (stereo not shown) [Example 432] | 0.6
CN1CCC(C#Cc2cnc(Nc3ccnc(-c4cnn(S(=O)(=O)C5CC5)c4)n3)cc2N2CCC3(CCO3)CC2)C1 (stereo not shown) [Example 373] | 0.2

Continue with the molecule presented below.
Look at this molecule and give its reported IC50. O=S(=O)(C1CC1)n1cc(-c2nccc(Nc3cc(N[C@H]4CC[C@@H](O)CC4)c(C#Cc4cnn(CC(F)(F)F)c4)cn3)n2)cn1 [Example 339]
0.9

###

test-target: EGFR Del19/C797S (Homo sapiens, UniProt P00533, C797S/DEL746-750)
Sequence (P00533 with tags, fused parts or gaps DEL746-750/C797S): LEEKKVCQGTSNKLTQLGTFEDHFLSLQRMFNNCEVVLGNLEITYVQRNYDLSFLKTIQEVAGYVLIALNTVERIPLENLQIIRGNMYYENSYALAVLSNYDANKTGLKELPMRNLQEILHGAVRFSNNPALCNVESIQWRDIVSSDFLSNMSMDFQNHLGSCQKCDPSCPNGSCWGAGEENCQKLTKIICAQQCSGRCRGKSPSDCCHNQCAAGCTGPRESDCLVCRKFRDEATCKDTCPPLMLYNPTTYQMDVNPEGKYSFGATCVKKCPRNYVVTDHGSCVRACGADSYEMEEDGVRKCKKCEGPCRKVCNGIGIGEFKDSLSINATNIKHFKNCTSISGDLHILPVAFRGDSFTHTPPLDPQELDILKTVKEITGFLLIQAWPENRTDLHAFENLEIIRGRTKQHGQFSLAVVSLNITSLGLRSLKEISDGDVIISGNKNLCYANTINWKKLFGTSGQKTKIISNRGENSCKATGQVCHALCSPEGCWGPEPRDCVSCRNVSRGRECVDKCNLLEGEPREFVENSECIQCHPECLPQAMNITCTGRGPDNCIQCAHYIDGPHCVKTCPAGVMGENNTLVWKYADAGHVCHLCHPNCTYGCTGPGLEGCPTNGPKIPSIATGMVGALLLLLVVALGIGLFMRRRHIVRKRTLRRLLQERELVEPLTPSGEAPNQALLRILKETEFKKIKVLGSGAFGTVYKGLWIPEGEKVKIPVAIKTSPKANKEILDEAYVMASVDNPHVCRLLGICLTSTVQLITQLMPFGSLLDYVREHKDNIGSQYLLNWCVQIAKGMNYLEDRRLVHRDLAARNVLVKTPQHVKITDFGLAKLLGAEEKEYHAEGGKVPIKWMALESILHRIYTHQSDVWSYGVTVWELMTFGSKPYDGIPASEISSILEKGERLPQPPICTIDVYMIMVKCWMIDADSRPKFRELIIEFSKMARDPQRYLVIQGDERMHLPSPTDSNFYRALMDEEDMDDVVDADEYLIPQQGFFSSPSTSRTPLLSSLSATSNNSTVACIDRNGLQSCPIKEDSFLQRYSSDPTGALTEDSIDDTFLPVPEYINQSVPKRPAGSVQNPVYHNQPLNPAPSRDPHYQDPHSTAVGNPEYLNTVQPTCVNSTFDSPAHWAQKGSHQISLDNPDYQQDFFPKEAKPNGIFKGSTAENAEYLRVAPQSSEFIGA
experimental-details: Biochemical EGFR kinase inhibition assay (Lance Ultra TR-FRET), double mutant del19/C797S
particulars: Km ATP; read-out: IC50 Del19/C797S (nM), Km ATP
parameter: IC50 (nM)
Field format: number, assumed nM, no unit text.

Recorded results for 2 compounds are shown here.
O=S(=O)(C1CC1)n1cc(-c2nccc(Nc3cc(N[C@H]4CCC[C@H](O)C4)c(C#Cc4cnn(CC(F)(F)F)c4)cn3)n2)cn1 [Example 341] | 21.4
C[C@]1(O)CCCN(c2cc(Nc3ccnc(-c4cnn(S(=O)(=O)C5CC5)c4)n3)ncc2C#Cc2cnn(CCF)c2)C1 [Example 447] | 1.5

# next compound below
Request the reported IC50 associated with O=S(=O)(C1CC1)n1cc(-c2nccc(Nc3cc(N[C@H]4CC[C@@H](O)CC4)c(C#CC4C[C@@H]5CC[C@@H]4O5)cn3)n2)cn1 (stereo partly drawn) [Example 427]
2.7

###

test-target: EGFR L858R/T790M/C797S (Homo sapiens, UniProt P00533, C797S/L858R/T790M)
Sequence (P00533 25-1210 T790M/C797S/L858R): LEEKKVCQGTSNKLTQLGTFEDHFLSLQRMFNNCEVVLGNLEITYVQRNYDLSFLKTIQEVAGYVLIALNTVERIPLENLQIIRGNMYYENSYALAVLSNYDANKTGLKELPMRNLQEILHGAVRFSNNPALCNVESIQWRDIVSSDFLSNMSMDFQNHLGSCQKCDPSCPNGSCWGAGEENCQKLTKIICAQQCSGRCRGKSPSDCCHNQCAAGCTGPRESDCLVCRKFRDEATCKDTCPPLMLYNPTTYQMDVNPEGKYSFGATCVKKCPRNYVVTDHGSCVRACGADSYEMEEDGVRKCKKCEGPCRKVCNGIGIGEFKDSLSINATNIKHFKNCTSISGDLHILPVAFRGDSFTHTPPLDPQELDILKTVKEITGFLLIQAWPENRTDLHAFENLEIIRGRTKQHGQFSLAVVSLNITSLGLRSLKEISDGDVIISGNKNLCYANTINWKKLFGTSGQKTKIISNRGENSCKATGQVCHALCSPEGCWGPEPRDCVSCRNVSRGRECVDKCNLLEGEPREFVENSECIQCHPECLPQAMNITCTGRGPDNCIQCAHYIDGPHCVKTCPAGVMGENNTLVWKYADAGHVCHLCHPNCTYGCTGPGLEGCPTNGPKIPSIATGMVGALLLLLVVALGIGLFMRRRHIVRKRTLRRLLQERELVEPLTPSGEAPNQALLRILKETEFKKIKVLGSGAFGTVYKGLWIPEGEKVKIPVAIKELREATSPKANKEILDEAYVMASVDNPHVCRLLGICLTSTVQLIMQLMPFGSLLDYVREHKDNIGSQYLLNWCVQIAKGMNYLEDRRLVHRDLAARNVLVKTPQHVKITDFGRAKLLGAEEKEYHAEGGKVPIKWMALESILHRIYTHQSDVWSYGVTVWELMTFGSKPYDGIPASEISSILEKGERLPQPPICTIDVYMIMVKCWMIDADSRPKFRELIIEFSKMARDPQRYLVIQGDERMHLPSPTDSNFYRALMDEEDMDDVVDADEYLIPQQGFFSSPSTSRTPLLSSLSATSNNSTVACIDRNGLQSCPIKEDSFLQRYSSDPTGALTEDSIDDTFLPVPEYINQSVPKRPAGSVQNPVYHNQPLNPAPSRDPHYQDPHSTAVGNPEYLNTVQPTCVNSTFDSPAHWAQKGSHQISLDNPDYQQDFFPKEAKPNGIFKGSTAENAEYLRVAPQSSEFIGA
experimental-details: Biochemical EGFR kinase inhibition assay (Lance Ultra TR-FRET), triple mutant L858R/T790M/C797S
particulars: Km ATP; read-out: IC50 L858R/T790M/C797S (nM) Km ATP
Below, each entry is listed with its recorded log10 of IC50.
Parameter value (number): base-10 log of IC50 in nM.

Study these solved cases before continuing.
CC1(CO)CCN(c2cc(Nc3ccnc(-c4cnn(S(=O)(=O)C5CC5)c4)n3)ncc2C#Cc2cnn(CC3CC3)c2)CC1 | 0.36
CN(C)CCn1cc(C#Cc2cnc(Nc3ccnc(-c4cnn(S(=O)(=O)C5CC5)c4)n3)cc2N2CCC(C)(CO)CC2)cn1 | -0.70
CC(C)Oc1cc(Nc2ccnc(-c3cnn(S(=O)(=O)C4CC4)c3)n2)ncc1C#Cc1cnn(C)c1 | 1.12

What reported log10 of IC50 corresponds to Cn1cc(C#Cc2cnc(Nc3ccnc(-c4cnn(S(=O)(=O)C5CC5)c4)n3)cc2N[C@H]2CCC[C@@H](O)C2)cn1 on EGFR L858R/T790M/C797S (Homo sapiens, UniProt P00533, C797S/L858R/T790M)?
-0.10

What about this compound? CC(C)n1cc(C#Cc2cnc(Nc3ccnc(-c4cnn(S(=O)(=O)C5CC5)c4)n3)cc2OC[C@H]2CC[C@H](CN(C)C)CC2)cn1
-1.00

// repeat for Cn1cc(C#Cc2cnc(Nc3ccnc(-c4cnn(S(=O)(=O)C5CC5)c4)n3)cc2N[C@H]2CC[C@@H](NCCF)CC2)cn1 and report
-0.30

What would you report for O=S(=O)(C1CC1)n1cc(-c2nccc(Nc3cc(-c4cnn(C5CC5)c4)c(C#Cc4cnn(CCF)c4)cn3)n2)cn1 ?
1.22

Origin of values: patent US11981658B2
